Value source: the kinase profiling compilation of Christmann-Franck et al. (2016)

// reported residual activity per item
Biological target: UniProt:P22455
Sequence (P22455 whole entry, looked up): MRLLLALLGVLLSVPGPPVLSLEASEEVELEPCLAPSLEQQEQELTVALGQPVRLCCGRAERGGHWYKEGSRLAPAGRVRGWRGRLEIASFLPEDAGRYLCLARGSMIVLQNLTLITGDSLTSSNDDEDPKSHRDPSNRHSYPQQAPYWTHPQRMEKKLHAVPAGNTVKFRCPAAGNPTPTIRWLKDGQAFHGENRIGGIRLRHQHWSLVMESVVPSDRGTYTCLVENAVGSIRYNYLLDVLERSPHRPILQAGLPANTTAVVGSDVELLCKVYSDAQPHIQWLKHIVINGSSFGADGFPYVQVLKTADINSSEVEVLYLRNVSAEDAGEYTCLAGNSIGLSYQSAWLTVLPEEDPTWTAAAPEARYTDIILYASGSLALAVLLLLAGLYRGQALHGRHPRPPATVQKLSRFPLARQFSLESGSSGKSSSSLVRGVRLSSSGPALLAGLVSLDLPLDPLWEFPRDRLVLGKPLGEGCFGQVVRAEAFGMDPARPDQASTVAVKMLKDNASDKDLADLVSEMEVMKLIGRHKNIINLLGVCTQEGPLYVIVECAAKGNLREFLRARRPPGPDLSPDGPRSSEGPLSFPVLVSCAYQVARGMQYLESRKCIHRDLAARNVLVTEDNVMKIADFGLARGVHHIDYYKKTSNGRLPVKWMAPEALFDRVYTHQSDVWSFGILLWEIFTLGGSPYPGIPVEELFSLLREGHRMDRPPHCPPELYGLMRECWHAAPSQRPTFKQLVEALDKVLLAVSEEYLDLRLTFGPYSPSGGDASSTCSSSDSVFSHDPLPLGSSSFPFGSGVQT
Test: radiometric filter-binding kinase assay, Kinase HotSpot
Details: compound 0.5 µM; ATP 10 µM
Lab book: enter the figure in %, no units written.

The cases that follow already have their residual activity on record.
structureNotation | unitName | valueMeasured
CN(C)CCCn1cc(C2=C(c3c[nH]c4ccccc34)C(=O)NC2=O)c2ccccc21 | % | 89
N#Cc1c[nH]c2c[nH]/c(=N\Cc3cccnc3)cc2/c1=N\c1ccc(F)c(Cl)c1 | % | 92.6
Cc1cncc2cccc(S(=O)(=O)N3CCCN(C(=O)CN)C[C@H]3C)c12 | % | 79.5

-- ask Quick one: residual activity for COc1ccc(S(=O)(=O)N(CCO)c2ccccc2CN(C)C/C=C/c2ccc(Cl)cc2)cc1 ?
-- reply 98.3

-- ask Here is the next compound: COc1ccc2c(c1)c(C1=C(c3c[nH]c4ccccc34)C(=O)NC1=O)cn2CCCN(C)C
-- reply 79.2

-- ask Here is the next compound: COc1cc2ncnc(Nc3ccc(OCc4ccccc4)cc3)c2cc1OC
-- reply 106

-- ask Here is the next compound: CN(C)c1ccc(/C=C2\C(=O)Nc3ccccc32)cc1
-- reply 97.4

-- ask Here is the next compound: Cn1c2ccccc2c2c3c(c4c5ccccc5n(CCC#N)c4c21)CNC3=O
-- reply 86.5

---

// reported residual activity per item
Molecular target: MET (human) (UniProt P08581)
Sequence (P08581 whole entry, looked up): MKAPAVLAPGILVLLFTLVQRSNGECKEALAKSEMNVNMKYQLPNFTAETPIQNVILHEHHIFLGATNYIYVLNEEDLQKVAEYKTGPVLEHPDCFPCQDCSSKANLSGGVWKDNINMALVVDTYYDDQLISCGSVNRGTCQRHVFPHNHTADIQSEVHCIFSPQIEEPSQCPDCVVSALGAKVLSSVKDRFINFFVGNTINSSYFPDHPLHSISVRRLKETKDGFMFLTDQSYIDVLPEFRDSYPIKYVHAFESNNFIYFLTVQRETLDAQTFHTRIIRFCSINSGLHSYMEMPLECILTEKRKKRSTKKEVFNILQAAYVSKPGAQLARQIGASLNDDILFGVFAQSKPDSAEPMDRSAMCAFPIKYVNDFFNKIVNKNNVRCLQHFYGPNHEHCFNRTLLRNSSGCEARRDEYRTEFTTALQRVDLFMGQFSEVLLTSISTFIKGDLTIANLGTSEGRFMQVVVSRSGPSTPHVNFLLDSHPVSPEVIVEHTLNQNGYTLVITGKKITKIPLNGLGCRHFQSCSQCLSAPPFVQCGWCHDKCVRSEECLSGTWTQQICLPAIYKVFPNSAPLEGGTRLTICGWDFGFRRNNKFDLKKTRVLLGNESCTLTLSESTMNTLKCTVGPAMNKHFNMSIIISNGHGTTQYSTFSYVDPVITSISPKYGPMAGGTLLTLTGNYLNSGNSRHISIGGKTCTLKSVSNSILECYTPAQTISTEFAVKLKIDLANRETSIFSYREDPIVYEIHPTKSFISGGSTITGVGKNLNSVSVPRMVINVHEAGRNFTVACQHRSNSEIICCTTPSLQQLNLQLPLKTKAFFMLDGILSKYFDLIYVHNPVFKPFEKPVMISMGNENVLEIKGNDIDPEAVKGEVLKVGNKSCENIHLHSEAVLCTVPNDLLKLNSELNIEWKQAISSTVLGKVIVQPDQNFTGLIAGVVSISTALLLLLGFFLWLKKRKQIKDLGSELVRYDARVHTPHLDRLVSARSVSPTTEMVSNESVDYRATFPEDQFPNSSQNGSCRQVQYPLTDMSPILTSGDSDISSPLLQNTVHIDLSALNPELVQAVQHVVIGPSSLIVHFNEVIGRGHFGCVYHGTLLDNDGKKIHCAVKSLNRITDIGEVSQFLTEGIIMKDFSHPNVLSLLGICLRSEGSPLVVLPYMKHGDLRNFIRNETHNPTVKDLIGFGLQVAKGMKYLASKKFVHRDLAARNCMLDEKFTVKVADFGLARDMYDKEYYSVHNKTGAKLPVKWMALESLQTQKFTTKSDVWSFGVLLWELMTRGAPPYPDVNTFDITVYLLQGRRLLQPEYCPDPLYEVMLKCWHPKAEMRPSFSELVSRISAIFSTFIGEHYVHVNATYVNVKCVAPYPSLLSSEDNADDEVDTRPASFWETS
Experiment: radiometric filter-binding kinase assay, Kinase HotSpot
Conditions: compound 0.5 µM; ATP 10 µM
Lab book: enter the figure in %, no units written.

-- ask Quick one: residual activity for Ic1cccc(CSc2nnc(-c3ccncc3)o2)c1 ?
-- reply 88.7

---

// reported residual activity per item
Target: TYRO3 (human)
Assay: radiometric filter-binding kinase assay, Kinase HotSpot
Settings: compound 0.5 µM; ATP 10 µM

structureNotation | assayMetric | valueMeasured
COc1ccc(S(=O)(=O)N(CCO)c2ccccc2CN(C)C/C=C/c2ccc(Cl)cc2)cc1 | residual activity | 97.1%
N#Cc1c[nH]c2c[nH]/c(=N\Cc3cccnc3)cc2/c1=N\c1ccc(F)c(Cl)c1 | residual activity | 98%
Cn1c2ccccc2c2c3c(c4c5ccccc5n(CCC#N)c4c21)CNC3=O | residual activity | 85.6%
O=C1C(Cl)=C(N2C(=O)CCC2=O)C(=O)c2ccccc21 | residual activity | 114%

-- ask Quick one: residual activity for CC(C)(C)c1cc(C=C(C#N)C#N)cc(Br)c1O ?
-- reply 110%

-- ask Here is the next molecule: Ic1cccc(CSc2nnc(-c3ccncc3)o2)c1
-- reply 103%

-- ask Here is the next molecule: O=C(c1cc2cc(O)ccc2[nH]1)c1cc2cc(O)ccc2[nH]1
-- reply 76.4%

---

Target: UniProt Q05655
Sequence (Q05655 whole entry, looked up): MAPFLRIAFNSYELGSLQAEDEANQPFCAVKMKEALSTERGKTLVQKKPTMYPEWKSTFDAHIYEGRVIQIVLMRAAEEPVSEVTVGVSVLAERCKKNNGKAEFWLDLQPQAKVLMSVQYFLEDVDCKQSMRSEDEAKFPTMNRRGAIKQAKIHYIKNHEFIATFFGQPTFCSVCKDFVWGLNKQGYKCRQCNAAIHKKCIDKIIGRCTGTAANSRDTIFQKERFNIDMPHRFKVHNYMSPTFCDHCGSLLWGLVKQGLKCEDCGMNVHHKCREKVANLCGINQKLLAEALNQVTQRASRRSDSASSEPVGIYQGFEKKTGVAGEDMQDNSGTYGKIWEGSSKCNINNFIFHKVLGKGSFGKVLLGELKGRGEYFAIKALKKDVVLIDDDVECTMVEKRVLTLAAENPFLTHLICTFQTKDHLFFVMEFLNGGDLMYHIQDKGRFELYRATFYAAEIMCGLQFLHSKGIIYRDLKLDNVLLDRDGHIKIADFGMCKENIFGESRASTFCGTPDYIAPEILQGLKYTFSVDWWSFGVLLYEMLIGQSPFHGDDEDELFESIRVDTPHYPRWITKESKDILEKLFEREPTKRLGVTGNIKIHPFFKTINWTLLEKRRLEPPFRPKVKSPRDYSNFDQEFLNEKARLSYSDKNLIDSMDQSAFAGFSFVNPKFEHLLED
Experiment: radiometric filter-binding kinase assay, Kinase HotSpot
Conditions: compound 0.5 µM; ATP 10 µM
assayMetric: residual activity (%)
Lab book: enter the figure in %, no units written.

The cases that follow already have their residual activity on record.
structureNotation | residual activity (%)
N#C/C(=C\c1ccc(O)c(O)c1)C(=O)NCc1ccccc1 | 91.1
COc1ccc(Cl)cc1NC(=O)Nc1cc(C)nc2ccccc12 | 96.3
O=C1C(Cl)=C(N2C(=O)CCC2=O)C(=O)c2ccccc21 | 97.8

Turning to the following compound.
-- ask Quick one: residual activity for Ic1cccc(CSc2nnc(-c3ccncc3)o2)c1 ?
-- reply 83.7
